Assay: Hepatocyte (Hep) intrinsic clearance, rat
Type: in vitro ADME
Settings: hepatocytes
TEST READOUT: hepatocyte CLint (µL/min/1e6 cells)

Would you please look over these solved cases?
>  <MOLECULE>
COC1CN(C(=O)c2nc(N[C@@H](C)c3ccccn3)nc3ccsc23)C1 [Example Z108]

>  <RESULT UNITS>
µL/min/1e6 cells

>  <hepatocyte CLint>
23.4

$$$$
>  <MOLECULE>
CNc1cc2nc(N[C@@H](C)c3cncc(F)c3)nc(C(=O)N3CC[C@H](O)C3)c2s1 [Example Z197]

>  <RESULT UNITS>
µL/min/1e6 cells

>  <hepatocyte CLint>
16.2

$$$$
>  <MOLECULE>
C[C@H](Nc1nc(C(=O)NC2CC(O)C2)c2sccc2n1)c1ccccn1 (stereo partly drawn) [Example Z158]

>  <RESULT UNITS>
µL/min/1e6 cells

>  <hepatocyte CLint>
22.6

$$$$
>  <MOLECULE>
C[C@H]1CCN(C(=O)c2nc(N[C@@H](C)c3ccccn3)nc3ccsc23)C1 [Example Z87]

>  <RESULT UNITS>
µL/min/1e6 cells

>  <hepatocyte CLint>
57.6

$$$$
>  <MOLECULE>
O=C(c1nc(NCc2cncc(F)c2)nc2ccsc12)N1CC[C@@H](O)C1 [Example Z66]

>  <RESULT UNITS>
µL/min/1e6 cells

>  <hepatocyte CLint>
21.2

$$$$
>  <MOLECULE>
C[C@H](Nc1nc(C(=O)N2CCC2)c2sccc2n1)c1ccccn1 [Example Z90]

>  <RESULT UNITS>
µL/min/1e6 cells

>  <hepatocyte CLint>
33.3

$$$$
>  <MOLECULE>
O=C(NCCO)c1nc(NCc2cc(F)cc(F)c2)nc2ccsc12 [Example Z169]

>  <RESULT UNITS>
µL/min/1e6 cells

>  <hepatocyte CLint>
43.7

$$$$

A. CO[C@H]1CCN(C(=O)c2nc(N[C@@H](C)c3cccnc3)nc3ccsc23)C1 [Example Z18]
B. O=C(c1nc(NCc2cncc(F)c2)nc2ccsc12)N1CCC1 [Example Z61]
Lab notebook, comparison: A versus B , higher hepatocyte CLint goes to which? Output the label that corresponds to your choice.
A
(A: 68.4 µL/min/1e6 cells, B: 44.9 µL/min/1e6 cells)

---

Target: CYP3A4 (Homo sapiens (Human))
Sequence (P08684 whole entry): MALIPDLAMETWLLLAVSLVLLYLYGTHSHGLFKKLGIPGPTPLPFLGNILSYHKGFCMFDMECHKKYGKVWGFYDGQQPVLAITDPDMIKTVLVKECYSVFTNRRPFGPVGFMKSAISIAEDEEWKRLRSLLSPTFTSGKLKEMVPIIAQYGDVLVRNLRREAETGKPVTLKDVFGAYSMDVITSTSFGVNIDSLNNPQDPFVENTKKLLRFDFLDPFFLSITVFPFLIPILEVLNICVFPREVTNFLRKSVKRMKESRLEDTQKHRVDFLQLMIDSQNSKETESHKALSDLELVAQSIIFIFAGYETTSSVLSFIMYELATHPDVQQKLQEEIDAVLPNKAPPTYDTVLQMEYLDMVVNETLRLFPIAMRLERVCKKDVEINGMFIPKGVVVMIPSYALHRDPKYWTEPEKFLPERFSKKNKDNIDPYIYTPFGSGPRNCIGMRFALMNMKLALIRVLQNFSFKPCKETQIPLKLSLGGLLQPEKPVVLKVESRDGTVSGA
Assay: CYP450 inhibition at 10 μM, CYP3A4
Type: in vitro ADME
Details: human, 10 μM, read-out: CYP 450 % INH @ 10 μM
TEST READOUT: inhibition at 10 µM (%)

# count of solved cases: 5
>  <COMPOUND>
C[C@H](Nc1nc(C(=O)N2CCC2)c2sccc2n1)c1cccnc1 [Example Z2]

>  <RESULT NUMBER>
66

$$$$
>  <COMPOUND>
O=C(c1nc(NCc2cncc(F)c2)nc2ccsc12)N1CCCC1 [Example Z21]

>  <RESULT NUMBER>
45

$$$$
>  <COMPOUND>
C[C@H](Nc1nc(C(=O)N2CC[C@H](O)C2)c2sccc2n1)c1ccccn1 [Example Z58]

>  <RESULT NUMBER>
0

$$$$
>  <COMPOUND>
C[C@H](Nc1nc(C(=O)N2CC[C@@H](O)C2)c2sccc2n1)c1ccccn1 [Example Z59]

>  <RESULT NUMBER>
0

$$$$
>  <COMPOUND>
O=C(c1nc(NCc2cccc(Cl)c2)nc2ccsc12)N1CCC1 [Example Z121]

>  <RESULT NUMBER>
48.6

$$$$

I. O=C(c1nc(NCc2cncc(F)c2)nc2ccsc12)N1CCC1 [Example Z61]
II. O=C(c1nc(NCc2cccc(Cl)c2)nc2ccsc12)N1CC(O)C1 [Example Z122]
Compare the recorded inhibition at 10 µM of I and II ; state which is larger. State the label of the item chosen.
I
(I: 38%, II: 22.9%)
